These data points were gathered from ChEMBL document CHEMBL4219124.

Tested on: Prostaglandin F synthase (Homo sapiens)
ASSAY METHOD TEXT: Inhibition of human PGF synthase assessed as decrease in PGF2alpha production at 10 uM relative to control
Listing of recorded inhibition by entry.
# unit: % | format: bare number

Solved entries (count: 4):
1. Cc1cccc(Cl)c1Nc1nc2cc(C(=O)Nc3cc(C(F)(F)F)ccc3F)c3c(c2[nH]1)CC(C)(C)O3	17.9
2. Cn1c(Nc2c(F)cccc2Cl)nc2cc(C(=O)Nc3cccc(C(F)(F)F)c3)c3c(c21)CC(C)(C)O3	61.4
3. CC1(C)Cc2c(c(C(=O)Nc3cc(C(F)(F)F)ccc3F)cc3nc(Nc4c(F)cccc4Cl)[nH]c23)O1	99.2
4. CC1(C)Cc2c(c(C(=O)Nc3ccc(F)c(C(F)(F)F)c3)cc3nc(Nc4c(F)cccc4Cl)[nH]c23)O1	100

Now consider a different compound.
Ask: If you can, please state the reported inhibition value of CC1(C)Cc2c(c(C(=O)Nc3ccc(C(F)(F)F)cn3)cc3nc(Nc4c(Cl)cccc4Cl)[nH]c23)O1 .
Reply: 15.4
